Test: Inhibition of HCV NS4A-tethered single chain NS3 serine protease assessed as Ac-DTEDVVP(Nva)- O-PAP substrate hydrolysis by spectrophotometric assay
Design: species or system Hepacivirus hominis
reportedProperty: Ki (nM)

(a) CCC[C@H](NC(=O)[C@@H]1[C@@H]2[C@H](CN1C(=O)[C@@H](NC(=O)NC1([C@@H]3CCN(C)S3(=O)=O)CCCCC1)C(C)(C)C)C2(C)C)C(=O)C(=O)NC1CC1
(b) CCC[C@H](NC(=O)[C@@H]1[C@@H]2[C@H](CN1C(=O)[C@@H](NC(=O)NC1(CS(=O)(=O)N(C)CC3CC3)CCCCC1)C(C)(C)C)C2(C)C)C(=O)C(=O)NC1CC1
(c) CN(C1CC1)S(=O)(=O)CC1(NC(=O)N[C@H](C(=O)N2CC3C([C@H]2C(=O)N[C@@H](CCC2CC2)C(=O)C(=O)NC2CC2)C3(C)C)C(C)(C)C)CCCCC1 (single isomer, unassigned)
(d) CCC[C@H](NC(=O)[C@@H]1[C@@H]2[C@H](CN1C(=O)[C@@H](NC(=O)NC1(CS(=O)(=O)N(C)C(C)(C)CF)CCCCC1)C(C)(C)C)C2(C)C)C(=O)C(=O)NC1CC1
(Q) // TODO: order the 4 compounds above by Ki, descending Reply with the labels, ordered as the question asks.
(A) b, c, a, d

* * *

Assay: Selectivity index, ratio of Ki for HNE to Ki for NS4A-tethered single chain NS3 serine protease
reportedProperty: Ratio Ki

compound	Ratio Ki
CCC[C@H](NC(=O)[C@@H]1[C@@H]2[C@H](CN1C(=O)[C@@H](NC(=O)NC1(CS(=O)(=O)NC)CCCCC1)C(C)(C)C)C2(C)C)C(=O)C(=O)NC1CC1	58
CCC[C@H](NC(=O)[C@@H]1[C@@H]2[C@H](CN1C(=O)[C@@H](NC(=O)NC1(CS(=O)(=O)N(C)C)CCCCC1)C(C)(C)C)C2(C)C)C(=O)C(=O)NC1CC1	82
C#CCCC(NC(=O)[C@@H]1[C@@H]2[C@H](CN1C(=O)[C@@H](NC(=O)N[C@H](C(=O)C1CC1)C1CCCCC1)C(C)(C)C)C2(C)C)C(=O)C(=O)NC1CC1 (some centres not stated)	20
CN(C1CC1)S(=O)(=O)CC1(NC(=O)N[C@H](C(=O)N2C[C@H]3[C@@H]([C@H]2C(=O)N[C@@H](CC2CC2)C(=O)C(=O)NC2CC2)C3(C)C)C(C)(C)C)CCCCC1	113

(I) CCC[C@H](NC(=O)[C@@H]1[C@@H]2[C@H](CN1C(=O)[C@@H](NC(=O)NC1(CS(=O)(=O)N(C)C(C)(C)C)CCCCC1)C(C)(C)C)C2(C)C)C(=O)C(=O)NC1CC1
(II) CCCC[C@H](NC(=O)[C@@H]1[C@@H]2[C@H](CN1C(=O)[C@@H](NC(=O)NC1(CS(=O)(=O)N(C)C3CC3)CCCCC1)C(C)(C)C)C2(C)C)C(=O)C(=O)NC1CC1
(Q) Please state the entry with greater Ratio Ki among I and II . Let me know the label of the one you choose.
(A) II

* * *

Test: Inhibition of HCV NS4A-tethered single chain NS3 serine protease assessed as Ac-DTEDVVP(Nva)- O-PAP substrate hydrolysis by spectrophotometric assay
Parameters: species or system Hepacivirus hominis
pKi: −log10 of the molar value.
reportedProperty: pKi

molecule	reportedProperty	measuredValue
CCC[C@H](NC(=O)[C@@H]1[C@@H]2[C@H](CN1C(=O)[C@@H](NC(=O)NC1(CS(=O)(=O)N(C)CC)CCCCC1)C(C)(C)C)C2(C)C)C(=O)C(=O)NC1CC1	pKi	8.05
CCC[C@H](NC(=O)[C@@H]1[C@@H]2[C@H](CN1C(=O)[C@@H](NC(=O)NC1(CS(=O)(=O)N(C)C3CCC3)CCCCC1)C(C)(C)C)C2(C)C)C(=O)C(=O)NC1CC1	pKi	8.15
CCC[C@H](NC(=O)[C@@H]1[C@@H]2[C@H](CN1C(=O)[C@@H](NC(=O)NC1(CS(=O)(=O)N(C)C(C)(C)C)CCCCC1)C(C)(C)C)C2(C)C)C(=O)C(=O)NC1CC1	pKi	8.10
CCC[C@H](NC(=O)[C@@H]1[C@@H]2[C@H](CN1C(=O)[C@@H](NC(=O)NC1(C3CCN(C4CC4)S3(=O)=O)CCCCC1)C(C)(C)C)C2(C)C)C(=O)C(=O)NC1CC1 (single isomer, unassigned)	pKi	8.40

(A) CC(C)(C)NC(=O)N[C@H](C(=O)N1C[C@H]2[C@@H]([C@H]1C(=O)NC(CC1CCC1)C(=O)C(N)=O)C2(C)C)C(C)(C)C (stereo not given in full)
(B) CCC[C@H](NC(=O)C1[C@@H]2[C@H](CN1C(=O)[C@@H](NC(=O)NC1([C@@H](C)S(=O)(=O)N(C)C)CCCCC1)C(C)(C)C)C2(C)C)C(=O)C(=O)NC1CC1 (stereo not given in full)
(Q) Compare A and B and name the one whose reported pKi is smaller. Let me know the label of the one you choose.
(A) A
(A: 7.85, B: 8.70)

(I) CCCC[C@H](NC(=O)[C@@H]1[C@@H]2[C@H](CN1C(=O)[C@@H](NC(=O)NC1(CS(=O)(=O)N(C)C3CC3)CCCCC1)C(C)(C)C)C2(C)C)C(=O)C(=O)NC1CC1
(II) CCC[C@H](NC(=O)[C@@H]1[C@@H]2[C@H](CN1C(=O)[C@@H](NC(=O)NC1(CS(=O)(=O)N(C)C)CCCCC1)C(C)(C)C)C2(C)C)C(=O)C(=O)NC1CC1
(Q) Please state the entry with greater pKi among I and II . Let me know the label of the one you choose.
(A) II
(II: 8.22, I: 7.96)
